Hey, just so you know, these numbers are from patent US12459930B2.

# System: PC3 spheres (cancer stem cells)
# experiment summary: In vitro sphere-forming assay (cancer stem cells), PC3 in Prostosphere media
# stated conditions: read-out: % Viability of spheres (PC3), 0.025 uM; GCD = 100% viability
viability at 0.025 µM overview
Your answer is read as %, so omit the unit and give the number.

// below: answered compounds
Hello, I am looking for reported viability at 0.025 µM with PC3 spheres (cancer stem cells) for C=CCNCCCCCCOc1ccc(-c2ccc3c(c2)OCO3)c2c1CCCC2 [Formula XXII] . Could you help?
52

For the record c1ccc2c(-c3ccc4c(c3)OCO4)ccc(OCCCCCCN3CCOCC3)c2c1 [Formula IV] , what value of viability at 0.025 µM is listed for PC3 spheres (cancer stem cells)?
59

Give PC3 spheres (cancer stem cells) viability at 0.025 µM for COc1cccc(-c2ccc(OCCN3CCOCC3)c3ccccc23)c1 [Formula XII]
51

Give viability at 0.025 µM (PC3 spheres (cancer stem cells)) of the following compound: c1ccc2c(-c3ccc4c(c3)OCO4)ccc(OCCN3CCOCC3)c2c1 [Formula X]
72

Lookup: viability at 0.025 µM / PC3 spheres (cancer stem cells) / c1cc2c(cc1-c1ccc(OCCN3CCOCC3)c3c1CCCC3)OCO2 [Formula XXI]
68

Request body: readout viability at 0.025 µM, system PC3 spheres (cancer stem cells), query c1cnc2c(OCCCCCCN3CCOCC3)ccc(-c3ccc4c(c3)OCO4)c2c1 [Formula XVI] . Return the value.
63

Lab note: need viability at 0.025 µM for c1ccc2c(-c3ccc4c(c3)OCO4)ccc(OCCCCNC3CCCCC3)c2c1 [Formula XIV] on PC3 spheres (cancer stem cells), anyone have it?
51

Return viability at 0.025 µM measured with PC3 spheres (cancer stem cells) given this compound: c1cc2c(cc1-c1ccc(OCCCCCCN3CCOCC3)c3c1CCCC3)OCO2 [Formula XX]
45

Next item in the queue.
Give the reported viability at 0.025 µM for COc1cc2c(OCCCCN3CCOCC3)c3c(c(-c4ccc5c(c4)OCO5)c2cc1OC)C(=O)OC3 [Formula VI] (system: PC3 spheres (cancer stem cells)).
57

====

Each entry below carries its recorded viability at 0.025 µM.
# System: PC3 spheres (cancer stem cells)
# experiment summary: In vitro sphere-forming assay (cancer stem cells), PC3 in Prostosphere media
# stated conditions: read-out: % Viability of spheres (PC3), 0.025 uM; GCD = 100% viability
Supply the numeric figure in %, leaving out any unit text.

Fill in the recorded viability at 0.025 µM for this compound, with PC3 spheres (cancer stem cells) as test system: `O=C1OCc2c1c(-c1ccc3c(c1)OCO3)c1cc3c(cc1c2OCCCCN1CCOCC1)OCO3`
55

Find viability at 0.025 µM (PC3 spheres (cancer stem cells)) for the entry `c1ccc2c(-c3ccc4c(c3)OCO4)ccc(OCCCCN3CCOCC3)c2c1`
59

What viability at 0.025 µM appears in the records for this compound with PC3 spheres (cancer stem cells)? `CCOC(=O)N1CCN(CCCCCCOc2c3c(c(-c4ccc5c(c4)OCO5)c4cc(OC)c(OC)cc24)C(=O)OC3)CC1`
63

More entries:
Enter reported viability at 0.025 µM observed with PC3 spheres (cancer stem cells) for `CN1CCN(CCCCOc2ccc(-c3ccc4c(c3)OCO4)c3c2CCCC3)CC1`
48

Record `O=C1OCc2c1c(-c1ccc3c(c1)OCO3)c1cc3c(cc1c2OCCN1CCOCC1)OCO3` : what is its viability at 0.025 µM with PC3 spheres (cancer stem cells)?
52

Test system PC3 spheres (cancer stem cells); read-out viability at 0.025 µM; what value for `c1cc2c(cc1-c1ccc(OCCCCCCNC3CCCCC3)c3c1CCCC3)OCO2` ?
54

====

# System: MDAMB231 spheres (cancer stem cells)
# experiment summary: In vitro sphere-forming assay (cancer stem cells), MDAMB231 in Mammosphere media
# stated conditions: Homo sapiens, MDA-MB-231, read-out: % Viability of spheres (MDAMB231)
measured quantity: viability at 25 µM (%)
Report the value in % with no unit label.

For the molecule `c1ccc2c(-c3ccc4c(c3)OCO4)ccc(OCCCCN3CCOCC3)c2c1` , what viability at 25 µM is on record?
26

Consider the molecule shown here: `O=C1OCc2c1c(-c1ccc3c(c1)OCO3)c1cc3c(cc1c2OCCCCN1CCOCC1)OCO3` What is its recorded viability at 25 µM?
26

Param item = `c1cc2c(cc1-c1ccc(OCCCCCCNC3CCCCC3)c3c1CCCC3)OCO2` ; retrieve measured viability at 25 µM.
24

Could you tell me which viability at 25 µM is on file for `CCOC(=O)N1CCN(CCCCCCOc2c3c(c(-c4ccc5c(c4)OCO5)c4cc(OC)c(OC)cc24)C(=O)OC3)CC1` ?
22

Which value of viability at 25 µM has been reported for `c1cnc2c(OCCCCCCN3CCOCC3)ccc(-c3ccc4c(c3)OCO4)c2c1` in the records?
25

Fill in: viability at 25 µM of `c1ccc2c(-c3ccc4c(c3)OCO4)ccc(OCCN3CCOCC3)c2c1` is ___
8

Which measured viability at 25 µM value corresponds to `CN1CCN(CCCCOc2ccc(-c3ccc4c(c3)OCO4)c3c2CCCC3)CC1` ?
16

Consider the record given below.
Item COc1cc2c(OCCCCN3CCOCC3)c3c(c(-c4ccc5c(c4)OCO5)c2cc1OC)C(=O)OC3.Cl [Formula VII, Hydrochloride] has what recorded viability at 25 µM?
29

====

# Test system: PC3 spheres (cancer stem cells)
# experiment summary: In vitro sphere-forming assay (cancer stem cells), PC3 in Prostosphere media
# stated conditions: 2.5 uM; 2000 cells/well; n = 6 ± S.D
// reported 3D sphere count of PC3 in Prostosphere media per item

Please review the following examples before continuing.
May I ask what 3D sphere count of PC3 in Prostosphere media has been recorded for `COc1cc2c(OCCCCN3CCOCC3)c3c(c(-c4ccc5c(c4)OCO5)c2cc1OC)C(=O)OC3` ?
37(±2)

// lookup 3D sphere count of PC3 in Prostosphere media for `c1cnc2c(OCCCCCCN3CCOCC3)ccc(-c3ccc4c(c3)OCO4)c2c1`
34(±3)

Return reported 3D sphere count of PC3 in Prostosphere media; argument: `COc1cccc(-c2ccc(OCCN3CCOCC3)c3ccccc23)c1`
28(±3)

Which 3D sphere count of PC3 in Prostosphere media is listed for `O=C1OCc2c1c(-c1ccc3c(c1)OCO3)c1cc3c(cc1c2OCCCCN1CCOCC1)OCO3` ?
32(±3)

Can you look up the measured 3D sphere count of PC3 in Prostosphere media of `CCOC(=O)N1CCN(CCCCCCOc2c3c(c(-c4ccc5c(c4)OCO5)c4cc(OC)c(OC)cc24)C(=O)OC3)CC1` for me?
29(±4)

Any idea what 3D sphere count of PC3 in Prostosphere media was measured for `C=CCNCCCCCCOc1ccc(-c2ccc3c(c2)OCO3)c2c1CCCC2` ?
25(±3)

GET /values?readout=3D sphere count of PC3 in Prostosphere media&item= `c1cc2c(cc1-c1ccc(OCCCCCCN3CCOCC3)c3c1CCCC3)OCO2`
15(±3)

Need 3D sphere count of PC3 in Prostosphere media of `COc1cc2c(OCCCCN3CCOCC3)c3c(c(-c4ccc5c(c4)OCO5)c2cc1OC)C(=O)OC3.Cl` , thanks.
37(±2)

Next:
What does the record list as 3D sphere count of PC3 in Prostosphere media for `CN1CCN(CCCCOc2ccc(-c3ccc4c(c3)OCO4)c3c2CCCC3)CC1` ?
25(±3)

Recorded 3D sphere count of PC3 in Prostosphere media of `c1ccc2c(-c3ccc4c(c3)OCO4)ccc(OCCCCNC3CCCCC3)c2c1` , please.
24(±3)

====

# Test system: MDAMB231 breast cancer cell line
# experiment summary: Soft agar colony-formation assay, MDAMB231
# Format: cell-based
# stated conditions: Homo sapiens, MDA-MB-231, 168 h, 1 week, Alamar Blue, read-out: IC50 in micromolar, MDAMB231 (Soft Agar Assay)
Readings of pIC50 for the listed compounds
Lab note — pIC50 values are minus log10 of concentrations in M.

Item `COc1cccc(-c2ccc(OCCN3CCOCC3)c3ccccc23)c1` has what recorded pIC50?
5.48

Look up pIC50: `O=C(CCCOc1ccc(-c2ccc3c(c2)OCO3)c2ccccc12)N1CCOCC1`
5.27

So what does the record say about pIC50 for `c1ccc2c(-c3ccc4c(c3)OCO4)ccc(OCCN3CCOCC3)c2c1` ?
5.38

***
Which pIC50 is listed for `c1ccc2c(-c3ccc4c(c3)OCO4)ccc(OCCCCN3CCOCC3)c2c1` ?
5.76

Return reported pIC50; argument: `c1ccc2c(-c3ccc4c(c3)OCO4)ccc(OCCCCNC3CCCCC3)c2c1`
5.55

So what does the record say about pIC50 for `c1cc2c(cc1-c1ccc(OCCN3CCOCC3)c3c1CCCC3)OCO2` ?
5.36

I would be grateful if you could share the reported pIC50 for `O=C1OCc2c1c(-c1ccc3c(c1)OCO3)c1cc3c(cc1c2OCCN1CCOCC1)OCO3` .
5.57

I am curious: what pIC50 value has been reported for `c1cc2c(cc1-c1ccc(OCCCCCCN3CCOCC3)c3c1CCCC3)OCO2` ?
5.42

Fill in: pIC50 of `c1ccc2c(-c3ccc4c(c3)OCO4)ccc(OCCCCCCN3CCOCC3)c2c1` is ___
5.59
